Parameter 'readout' = pIC50; parameter 'system' = ALK (Homo sapiens, UniProt Q9UM73).
Sequence (Q9UM73 19-1620): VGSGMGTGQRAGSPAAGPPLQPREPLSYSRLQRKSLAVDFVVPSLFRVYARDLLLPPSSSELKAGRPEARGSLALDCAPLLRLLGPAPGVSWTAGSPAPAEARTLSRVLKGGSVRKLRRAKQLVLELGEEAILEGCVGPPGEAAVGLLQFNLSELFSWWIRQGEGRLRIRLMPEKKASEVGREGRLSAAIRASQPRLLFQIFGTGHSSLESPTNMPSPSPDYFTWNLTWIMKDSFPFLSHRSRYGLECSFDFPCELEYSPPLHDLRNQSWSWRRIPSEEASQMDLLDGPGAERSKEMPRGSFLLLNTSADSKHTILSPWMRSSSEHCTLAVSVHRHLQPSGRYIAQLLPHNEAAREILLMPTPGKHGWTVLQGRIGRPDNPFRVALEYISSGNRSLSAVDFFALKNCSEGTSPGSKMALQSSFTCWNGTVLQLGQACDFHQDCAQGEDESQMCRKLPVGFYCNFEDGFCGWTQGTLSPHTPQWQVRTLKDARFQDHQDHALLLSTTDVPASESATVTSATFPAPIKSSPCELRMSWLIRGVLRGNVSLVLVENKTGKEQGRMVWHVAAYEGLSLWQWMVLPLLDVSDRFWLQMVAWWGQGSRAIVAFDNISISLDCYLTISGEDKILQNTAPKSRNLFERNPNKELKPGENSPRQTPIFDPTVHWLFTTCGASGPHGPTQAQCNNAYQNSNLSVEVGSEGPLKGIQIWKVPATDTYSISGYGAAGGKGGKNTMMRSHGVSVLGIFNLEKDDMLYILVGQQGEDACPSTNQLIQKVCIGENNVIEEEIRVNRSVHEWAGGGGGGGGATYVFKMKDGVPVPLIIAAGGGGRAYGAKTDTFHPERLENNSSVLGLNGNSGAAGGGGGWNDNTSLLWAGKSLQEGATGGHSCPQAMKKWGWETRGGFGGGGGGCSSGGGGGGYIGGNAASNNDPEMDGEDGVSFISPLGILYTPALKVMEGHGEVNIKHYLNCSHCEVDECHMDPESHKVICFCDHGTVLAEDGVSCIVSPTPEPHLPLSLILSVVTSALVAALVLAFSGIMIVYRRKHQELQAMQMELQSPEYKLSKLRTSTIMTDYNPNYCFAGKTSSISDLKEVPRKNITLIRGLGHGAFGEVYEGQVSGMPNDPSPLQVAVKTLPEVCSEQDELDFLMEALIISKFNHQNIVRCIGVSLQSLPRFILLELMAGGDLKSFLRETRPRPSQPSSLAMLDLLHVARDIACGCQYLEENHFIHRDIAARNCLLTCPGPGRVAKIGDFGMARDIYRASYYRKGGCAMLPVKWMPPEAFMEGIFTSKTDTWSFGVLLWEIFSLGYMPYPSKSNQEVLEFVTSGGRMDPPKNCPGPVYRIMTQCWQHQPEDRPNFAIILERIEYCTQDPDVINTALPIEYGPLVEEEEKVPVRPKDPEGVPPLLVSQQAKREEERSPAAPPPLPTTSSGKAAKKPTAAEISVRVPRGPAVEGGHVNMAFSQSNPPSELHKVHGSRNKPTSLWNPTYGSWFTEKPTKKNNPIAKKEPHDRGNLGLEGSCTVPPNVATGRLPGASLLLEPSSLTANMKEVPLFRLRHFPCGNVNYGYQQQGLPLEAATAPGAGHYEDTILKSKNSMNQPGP
The value called pIC50 is obtained by taking minus log10 of the concentration in mol/L.

Past entries and their recorded results:
Cc1cc(Nc2ncc(Cl)c(Nc3ccccc3NS(C)(=O)=O)n2)c(OC(C)C)cc1C1=CCN(C2CCOCC2)CC1	8.74
Cc1cc(Nc2ncc(Cl)c(Nc3ccccc3S(=O)(=O)C(C)C)n2)c(OC(C)C)cc1C1=CCN(C2CCOCC2)CC1 [APG-2449, reference compound]	9.10

Now consider the entry below.
Can you share its pIC50? I mean this molecule: `Cc1cc(Nc2ncc(Cl)c(Nc3ccccc3N(C(C)C)S(C)(=O)=O)n2)c(OC(C)C)cc1C1=CCN(C2CCOCC2)CC1`
9.22
